B1: CPEB3 Ribozyme (parent)
chain: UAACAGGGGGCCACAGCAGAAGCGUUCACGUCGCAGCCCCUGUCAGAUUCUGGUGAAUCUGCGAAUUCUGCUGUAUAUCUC

Variants of: B1
experiment_notes: self-cleavage, relative activity (ratio to wild type); higher = more cleavage; in vitro, sequencing
The threshold is inclusive: self-cleavage of exactly 0.4 counts as met; values below receive not met.

UAACAGGGGGCCACAGCAGAAGCGUUCACGUCGCAGCCACUGUCAGAUUCUGGUGAGUCUGCGAAUUCUGCUGUAUAUCUC	not met
UAACAGGGGGCUACAGCAGAAGCGUUCACGUCGCAGCCCCUGUCCGAUUCUGGUGAAUCUGCGAAUUCUGCUGUAUAUCUC	met
UAACAGGGGGCCACAGCAGAAGCGUUCACGUCGCAGCCCCUGUCAGAUUCUCGUGAAUCUGCGAAUUCUGCUGUAUAUCCC	met
UAACAGGGGGCCACAGCAGAAGCGUUCACGUCGCAGCCCCUGUUAGAUUCUGGCGAAUCUGCGAAUUCUGCUGUAUAUCUC	not met
UAACAGGGGGCCACAGCAGGAGCGUUCACGUCGCAGCCCCUGUCAGAUUCUGGUGAAUCUGCGAAUUCUGCUGUAUGUCUC	met
UAACAGGGGGCCACAGCAGAAGCGUUCAAGUCGCAGCCCCUGUCAGACUCUGGUGAAUCUGCGAAUUCUGCUGUAUAUCUC	not met
UAACAGGGGGCCACAGCAGAAGCGUUCACGUCGCAGCCCCUGUCAGAUUCUGGUGAAUCUGCAGAUUCUGCUGUAUAUCUC	met
UAACAGGGGGCCACACCAGAAGCGCUCACGUCGCAGCCCCUGUCAGAUUCUGGUGAAUCUGCGAAUUCUGCUGUAUAUCUC	not met
UAACAGGGGGCCACAGCUGAAGCGUUCACGUCGCAGCCCCUGUCAGAUUCUGGUGAAUAUGCGAAUUCUGCUGUAUAUCUC	not met
UAACAGGGGGCCACAGCAGAAGCGUUCACGUCGCAGCCCCUGUCAGAUUUUGGUGAAUCUGCGAAUUCUGCUGUUUAUCUC	met
UAACAGGAGGCCACAGCAGAAGCAUUCACGUCGCAGCCCCUGUCAGAUUCUGGUGAAUCUGCGAAUUCUGCUGUAUAUCUC	not met
UAACAGGGGGCCACAGCAGUAGCGUUCACGACGCAGCCCCUGUCAGAUUCUGGUGAAUCUGCGAAUUCUGCUGUAUAUCUC	not met
UAACAGGGGGCCACAGCAGAAGCGUUCACGUCGCAGCCCCUGUCAGAUUCUGGUGAAUCUGCGAAUGCUGCUGUAUAUUUC	met
UAACAGGGGGCCACAGCAGAAGCGUUCACGUCGCAGCCCCUGUCGGAUUCUCGUGAAUCUGCGAAUUCUGCUGUAUAUCUC	met
UAACAGGGGGCCACUGCAGAAGCGUUCACGUCGCAGCCCCUGUCAGAUUCUGGUGAAUCUGCGAAUUCUGCUUUAUAUCUC	met
UAACAGGGGGCCACAGCAGAAGCGUUCACGUCGCAGCCCCUGUCCGAUUCUGGUGAAUUUGCGAAUUCUGCUGUAUAUCUC	not met
UAACAGGGGGCCACAGCAGAAGCGUUCACGUCGCAGCCCCGGUCAGAUUCUGGUGAAUCUGCGAACUCUGCUGUAUAUCUC	not met
UAAGAGGGGGCCACAGCAGAAGCGUUCACGUCGCAGCCCCUGUCAGAUUCUGGUGAAUCUGCGAAUCCUGCUGUAUAUCUC	not met
UAACUGGGGACCACAGCAGAAGCGUUCACGUCGCAGCCCCUGUCAGAUUCUGGUGAAUCUGCGAAUUCUGCUGUAUAUCUC	not met
UAACAGGGGGCCGCAGCAGAAGCGUUCACGUCGCAGCCCCUGUCAGAUUCUGGUGAAUCUGAGAAUUCUGCUGUAUAUCUC	not met
UAACAGGGGGCCACAGCGGAAGCGUUCACGUCGCAGCCCCUGGCAGAUUCUGGUGAAUCUGCGAAUUCUGCUGUAUAUCUC	not met
UAACAGGGGGCCACAGCAGAAGCGUUCACGUCGCAGCCCCUGUCAAAUUCUGGUGAAUCUGCGAAUUCUGCUGUAUAUCUC	not met
UAACAGGGGGCCACAGCAGAAGCGUUCACGUCGCAGCCCCUGUCAGAUUCUGGAGAAUCUGCGAAUUCUGCUGUAUACCUC	met
UAACAGGGGGCCACAGCAGAGGCGUUCACGUCGCAGCCCCUGUCCGAUUCUGGUGAAUCUGCGAAUUCUGCUGUAUAUCUC	not met
UAACAGGGGGCCACAGCAGAAGCGUACACCUCGCAGCCCCUGUCAGAUUCUGGUGAAUCUGCGAAUUCUGCUGUAUAUCUC	not met
UAACAGGGGGCCACAGCAGAAGCGUUCACGUCGCAGCACCUGUCAGAUUCUGGUGAAUCUGCGAAUUCUGCUGGAUAUCUC	not met
